Hello, the source for this data is ChEMBL document CHEMBL1268903, in case you need it.

EC50 listing for selected compounds.
- Test system: A549
- assayOverview: Cytotoxicity against human A549 cells
- Assay type: functional, cell-based
Entry rule: numbers only, all in µM.

Value wanted: EC50 (A549) of entry COCOc1cc(/C=C/c2cc3c(c(OC)c2)O[C@]2(C)CC[C@@H](O)C(C)(C)[C@H]2C3)cc(OC)c1C/C=C(\C)C/C=C/C(C)CNC(=O)CCCC[C@H]1SC[C@H]2NC(=O)N[C@H]21 (stereo partly drawn)
5

Value wanted: EC50 (A549) of entry COc1cc(/C=C/c2cc(O)c(C/C=C(\C)CCC=C(C)C)c(O)c2)cc2c1O[C@]1(C)CC[C@@H](O)C(C)(C)[C@H]1C2 [3-DEOXYSCHWEINFURTHIN B]
4.9
